experiment: protein stability index of a GFP-peptide fusion (GPS, HEK-293T) (PSI 1-6); higher = more stable; details: treatment: DMSO; c terminus: a fixed tail appended;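 also: 24-mer peptide tiles fused after GFP, lentivirally expressed, FACS-sorted into six equal bins by GFP/DsRed ratio, decoded by Illumina sequencing, PSI is the read-weighted mean bin number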
propertyMeasured: protein stability index
The answer should be written as a number, with no unit following it.

Illustrative cases are given below, each with its answer.
sequenceChain	protein stability index
AANLPALVLKIMSGTFAPISDRYS [NEK8]	3.08
NQRIIHRDMKPDNILLDEHDTWLS [STK32A]	3.71
DMVEFLLEQCSASIEVGGSVNFDG [FEM1C]	2.17
RARRTEISKNSEKKMESEEDSNWE [GOLPH3L]	5.43
EPVAAGSGIPEVKCYLNGVKVPGI [CLCN6]	3.19

Would you mind telling me what protein stability index value was observed for SRRPLDEAVAGAEGREAPALVAAG [DENND6A] ?
4.86

Next sequence up: DPQILQMLKEEHQIILENQKNFGL [RAD54B]
3.25

Note, next up: VAIFGPPNTLYEGGYFKAHIKFPI [UBE2R2]
3.24

Would you mind doing PEKASELSQVELQAAPGALPVSSP [TRIM55] as well?
5.21

Can you handle SGSSYRDALQRYGTSHGAPPARGP [RBMY1A1] next?
4.1

Similarly, TRFTEEYQLFEELGKGAFSVVRRC [CAMK2A] ?
2.63

Thanks! And AMCVGCGSQIHDQFILRVSPDLEW [ISL2] ?
2.18

Same again, this time with PEIQKVRAQEREQIKALNNKFASF [KRT71]
3.78

Field entry: EAARLEYDAYRTDLEELSLGPRDA [ARFIP2]
4.78

Now consider PHQCSECGRAFSRKSLLVVHQRTH [ZNF649] .
4.93

Could you do the same for DKLRALKSQRQPRTSPSCAFRSDD [CDC14A] , please?
4.14

Param item: KTTLARQLQHDFPRALIFSTDDFF [N4BP2L1]
2.41

Same read-out for HQGHSDQHHHHHHHHHGRDFLLRA [RHOBTB2] ?
3.45

One more sequence: NITVQKKVSQWWERLTKQEKRPLF [HACD3]
2.65

Please answer likewise for TLALEALVQLRGRLTSQDWERVHL [ALG2]
2.24

Also, GGQITDEMAEQLMTLAYDNGINLF [KCNAB2] please.
2.79

// query: YLIRVDGKGSIKELFPTGKQLEPL [VPS39]
2.49

Cited source for all entries: the supplement of paper PMC10567573
